Reference source: the RNAGym collection of RNA variant scans (doi:10.1093/molbev/msab373)

B1: Azoarcus group I ribozyme (parent)
chain: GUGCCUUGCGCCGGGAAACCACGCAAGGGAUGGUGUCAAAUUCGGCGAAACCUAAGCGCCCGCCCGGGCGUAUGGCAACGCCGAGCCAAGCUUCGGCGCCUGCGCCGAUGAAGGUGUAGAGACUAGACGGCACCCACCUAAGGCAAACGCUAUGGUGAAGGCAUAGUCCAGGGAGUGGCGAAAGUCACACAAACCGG

Variants of: B1
Method description: reverse-splicing fitness (ratio to wild type); higher = more active; in vitro selection; Mg2+ level not given
Each entry below carries its recorded reverse-splicing fitness.
Lab note: record just the number, no unit beside it.

Inquiry: Could you please provide reported reverse-splicing fitness for C82U A111G A120C A145C C169G U176C ? Thanks!
Reply text: 0.00852

Inquiry: Could you please provide reported reverse-splicing fitness for A111C A120U A145U C150G C169G U176G ? Thanks!
Reply text: 0.00233
